Tested on: NOMO1
protocolDetails: cell viability relative to DMSO control; higher = less cytotoxic
recordedConditions: HPLM + 10% dialyzed FBS; 48 h; 0.569 µM
endpoint: cell viability (%)
One number for each entry, in %.

Recorded results for 3 molecules are shown here.
CCc1ccc(C(=O)Nc2cc(CN3CCN(C)CC3)cc(C(F)(F)F)c2)cc1C#Cc1cnc2ccnn2c1: 134
CN1/C=C(\N=C(NC2=CC=C(C=C2)C(=O)N3CCOCC3)/C1=O)/C4=C(C)C(=CC=C4)NC(=O)C5=CC=C(C=C5)C(C)(C)C: 112
C[C@H]1C[C@H]2[C@@H]3CCC4=CC(=O)C=C[C@]4(C)[C@H]3C(=O)C[C@]2(C)[C@@]1(O)C(=O)CO: 98.9

stdin: Query: cell viability; subject: O=[S+]([O-])(O)c1ccc2cc(/N=N/c3cc([S+](=O)([O-])O)c4cccnc4c3O)ccc2c1
stdout: 122

# credit: the supplement of paper PMC11451515
